Please respond with reported folding stability dG for every item in the list.
B1: EEHEE_rd4_0363 (parent)
chain: VTVDIKGMEYHFDNPEEAKKFAERMAKELGGELKVENGTLKVE

# Variants of: B1
# PROTOCOL_DESCRIPTION: folding stability dG (cDNA display proteolysis); higher = more stable
# RUN_CONDITIONS: PBS, room temperature
Numbers only, in kcal/mol.

# batch: return folding stability dG for each of the 3 variants below
1. V3I
2. G30V
3. A22L

Resp:
1. 1.18
2. 1.01
3. 1.48

Just for reference, the MegaScale stability set (Tsuboyama et al. 2023) is where these values come from.
